Observable: melting point

molecule="CN(Cc1cc2c(=O)c(C(=O)NCc3ccc(Cl)cc3)cn(C)c2s1)CC(O)c1cc2ccccc2o1 (racemic) [Example 5]" value_observed="212 to 214 °C"
molecule="CN(Cc1cc2c(=O)c(C(=O)NCc3ccc(Cl)cc3)cn(C)c2s1)CC(O)c1ccc[nH]1 (racemic) [Example 7]" value_observed="169 to 172 °C (dec.)"
molecule="CN(Cc1cc2c(=O)c(C(=O)NCc3ccc(Cl)cc3)cn(C)c2s1)CC(O)c1nccs1 (racemic) [Example 16]" value_observed="129 to 133 °C"
molecule="CN(Cc1cc2c(=O)c(C(=O)NCc3ccc(Cl)cc3)cn(C)c2s1)CC(O)c1ccoc1 (racemic) [Example 4]" value_observed="151 to 153 °C"
molecule="Cc1cc(C(O)CN(C)Cc2cc3c(=O)c(C(=O)NCc4ccc(Cl)cc4)cn(C)c3s2)c(C)o1 (racemic) [Example 12]" value_observed="167 to 172 °C"

// data source = patent US20050049245A1
